Reference for the values: patent US7902373B2

test_system: human recombinant H-PGDS (Homo sapiens, UniProt O60760)
Sequence (O60760 whole entry): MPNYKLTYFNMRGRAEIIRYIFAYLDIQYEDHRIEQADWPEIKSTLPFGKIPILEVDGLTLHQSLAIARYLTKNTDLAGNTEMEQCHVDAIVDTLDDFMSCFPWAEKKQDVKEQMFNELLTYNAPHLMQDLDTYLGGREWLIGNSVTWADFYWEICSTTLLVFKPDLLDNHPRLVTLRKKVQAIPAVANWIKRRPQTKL
protocol_summary: Fluorescence intensity h-PGDS TBA enzyme assay
Format: biochemical
test_context: Examples up to 622 (and 3a, 3b)
observation_type: pIC50
API: returns pIC50 as number; meaning -log10 of concentration in mol/L.

The cases that follow already have their pIC50 on record.
Query pIC50 on human recombinant H-PGDS (Homo sapiens, UniProt O60760) for O=C(NC1CCN(CC(F)(F)F)CC1)c1ccc(-c2ccccc2F)nc1
9.13

Which pIC50 is reported with human recombinant H-PGDS (Homo sapiens, UniProt O60760) for this entry: Cn1ccnc1COc1cc(N2CCC(NC(=O)c3ccc(-c4cccc(F)c4)nc3)CC2)ncn1 ?
8.88

Param readout= pIC50; system= human recombinant H-PGDS (Homo sapiens, UniProt O60760); entry= Cc1cnc(C)c(N2CCC(NC(=O)c3ccc(-c4cccc(F)c4)nc3)CC2)n1 ; returns value.
8.74

# get_value(readout= pIC50, system= human recombinant H-PGDS (Homo sapiens, UniProt O60760)) for Cc1cccc(-c2ccc(C(=O)NC3CCN(C(C)C)CC3)cn2)c1
8.12

Kindly consider the entry below.
What pIC50 appears in the records for this compound with human recombinant H-PGDS (Homo sapiens, UniProt O60760)? COc1ccc(C(C)N2CCC(NC(=O)c3ccc(-c4cccc(F)c4)nc3)CC2)cc1 (centres unmarked)
8.68

====

test_system: human recombinant H-PGDS (Homo sapiens, UniProt O60760)
protocol_summary: Fluorescence intensity h-PGDS TBA enzyme assay
Format: biochemical
test_context: Examples up to 622 (and 3a, 3b)
Listed next: entries and their corresponding log10 IC50.
Short version: log10 scale, IC50, nM.

Illustrative cases are given below, each with its answer.
Please give the measured log10 IC50 for this compound: O=C(NC1CCN(C2CCCC2)CC1)c1ccc(-c2cccc(F)c2)nc1 [Example 551]
0.12

Which log10 IC50 value is on record for CN1CCC(NC(=O)c2ccc(-c3ccccc3)nc2)CC1 [Example 3a] ?
0.84

Fill blank: measured log10 IC50 of the compound O=C(NC1CCN(c2cc(Nc3cc[nH]n3)ncn2)CC1)c1ccc(-c2cccc(F)c2)nc1 [Example 37] is ____.
-0.32

What value of log10 IC50 has been recorded for this entry: COc1cc(CN2CCC(NC(=O)c3ccc(-c4cccc(F)c4)nc3)CC2)ccc1C [Example 496]
-0.24

Using the record for COC(=O)Cn1cc(CN2CCC(NC(=O)c3ccc(-c4cccc(F)c4)nc3)CC2)c2ccccc21 [Example 339] , report its log10 IC50.
0.07

Please give the measured log10 IC50 for this compound: O=C(NC1CCN(C2CCC(O)(c3nccs3)CC2)CC1)c1ccc(-c2cccc(F)c2)nc1 (centres unmarked) [Example 555]
-0.03

Others:
Find the recorded log10 IC50 belonging to CC(C)Oc1ccc(CN2CCC(NC(=O)c3ccc(-c4cccc(F)c4)nc3)CC2)cc1 [Example 217] and report it.
0.18

# log10 IC50 lookup, item COc1ccccc1Cn1nnnc1N1CCC(NC(=O)c2ccc(-c3cccc(F)c3)nc2)CC1 [Example 96]
0.08

Look up log10 IC50 for this compound: O=C(NC1CCN(Cc2cccc(OC(F)F)c2)CC1)c1ccc(-c2cccc(F)c2)nc1 [Example 315]
-0.26

Query: log10 IC50; subject: N#Cc1ccc(C(=O)c2cccnc2N2CCC(NC(=O)c3ccc(-c4cccc(F)c4)nc3)CC2)cc1 [Example 111]
0.21

Would you kindly share the measured log10 IC50 for O=C(NC1CCN(Cc2ccc3cc[nH]c3c2)CC1)c1ccc(-c2cccc(F)c2)nc1 [Example 502] ?
0.30

Please give the measured log10 IC50 for this compound: Cc1nn(C)c(C)c1CN1CCC(NC(=O)c2ccc(-c3cccc(F)c3)nc2)CC1 [Example 250]
-0.39

Query (compound): O=C(NC1CCN(Cc2ccc(-n3cccn3)cc2)CC1)c1ccc(-c2cccc(F)c2)nc1 [Example 210] ; field requested: log10 IC50
-0.34

Please give the measured log10 IC50 for this compound: CCCN1CCC(NC(=O)c2ccc(-c3cccc(F)c3)nc2)CC1 [Example 591]
0.75

Tell me the measured log10 IC50 of COc1ccnc(N2CCC(NC(=O)c3ccc(-c4cccc(F)c4)nc3)CC2)c1C#N [Example 67] , please.
-0.02

Any idea what its log10 IC50 is? The compound is CC(C)c1csc(CN2CCC(NC(=O)c3ccc(-c4cccc(F)c4)nc3)CC2)n1 [Example 433]
-0.40

Tell me the measured log10 IC50 of CCn1ccnc1CN1CCC(NC(=O)c2ccc(-c3cccc(F)c3)nc2)CC1 [Example 431] , please.
-0.09
